# System: RSV A2
# measurementNotes: Screening for RSV inhibition using Viral ToxGlo assay (cytopathic effect inhibition in HEp-2 cells)
# Type: cell-based, Respiratory Syncytial Virus (RSV)
# runParameters: human respiratory syncytial virus; RSV A2 in HEp-2 cells, MOI 0.5, 72h p.i., cytopathic effect inhibition relative to virus control, Viral ToxGlo luminescence
# Experimental: Protocol for Screening Antiviral Compounds for RSV Inhibition and Cytotoxicity Using Viral ToxGlo Assay […] Cell plates were further incubated inside a humid chamber for 72h p.i at 37° C./5% CO2. […] Plates were incubated at room temperature, protected from light on a plate rocker for 20 minutes before measuring the luminescence on a spectrophotometer (Biotek Synergy HTX).
Record form. Attribute: EC50. Fill in for each entry.
Answers are plain numbers, in nM.

Cc1c(C(=O)NCCC(C)C)ccnc1Nc1ccc(C(=O)N=C2NCCN2)cc1C1CC1 [Compound 40] ... 69.2

Give EC50 for each of the items listed below.
1. CC1(NC(=O)c2ccnc(Nc3ccc(C(=O)N=C4NCCN4)cc3C3CC3)c2Cl)CC1 [Compound 123]
2. N#CC1(C(=O)Nc2cccc(Nc3ccc(C(=O)N=C4NCCN4)cc3C3CC3)c2)CC1 [Compound 141]
3. O=C(N=C1NCCN1)c1ccc(Nc2cc(F)cc(C(=O)N3CCOCC3)c2Cl)c(C2CC2)c1 [Compound 118]
4. CC1(NC(=O)c2cccc(Nc3ccc(C(=O)N=C4NCCN4)cc3C3CC3)c2Cl)CC1 [Compound 167]
5. O=C(N=C1NCCN1)c1cc(F)c(Nc2nccc(C(=O)N3C[C@H]4C[C@@H]3CO4)c2Cl)c(C2CC2)c1 [Compound 154]
6. CC(C)NC(=O)c1cccc(Nc2ccc(C(=O)/N=C3\NCCN3C3CC3)cc2C2CC2)c1 [Compound 43]
7. CC(C)N(C)C(=O)c1cccc(Nc2ccc(C(=O)N=C3NCCN3)cc2C(C)(C)C)c1 [Compound 38]

[83, 150, 27, 17.8, 69.8, 79.8, 63.7]

Give EC50 for each of the items listed below.
1. CC1(NC(=O)c2cccc(Nc3ccc(C(=O)N=C4NCCN4)cc3C3CCCO3)c2Cl)CC1 (stereo not shown) [Compound 137]
2. O=C(N=C1NCCN1)c1ccc(Nc2cccc(C(=O)NC3CCOC3)c2Cl)c(C2CC2)c1 (stereo not shown) [Compound 28]
3. CC(C)NC(=O)c1cccc(Nc2ccc(C(=O)/N=C3\NCCN3C)cc2C2CC2)c1 [Compound 36]
4. CC(C)CCNC(=O)c1cccc(Nc2ccc(C(=O)N=C3NCCN3)cc2C(C)(C)O)c1 [Compound 44]
5. CC(C)NC(=O)c1cccc(Nc2ccc(C(=O)N=C3NCCN3)cc2C2CCOC2)c1 (stereo not shown) [Compound 59]
6. CC(C)NC(=O)c1cccc(Nc2ccc(C(=O)N=C3NCCN3)cc2C2CC2)c1F [Compound 98]
7. O=C(N=C1NCCN1)c1ccc(Nc2cccc(C(=O)N3CCOCC3)c2C2CC2)c(C(F)(F)F)c1 [Compound 42]

1: 204; 2: 42.1; 3: 55.4; 4: 90.4; 5: 237; 6: 228; 7: 78.4
